meta.source: the supplement of paper PMC12042874

# EXPERIMENTAL DETAILS: amyloid nucleation score (Sup35N fusion, yeast selection) (log enrichment); library NNK2; higher = more nucleation; inactive = no reads after selection;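 note: zero at mode of non-aggregating sequences after 7 days selection at 30°C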
amyloid nucleation score values for the substances below.
Keep the answer to the number alone.

Here are 5 substances together with their reported answers.
Which amyloid nucleation score is reported for this substance? PVAQTLAVTFNY 1.62

Which amyloid nucleation score is reported for this substance? TIQRRQFVNPDSVVMLRINY -0.704

Which amyloid nucleation score is reported for this substance? RGYLTAT -0.134

Which amyloid nucleation score is reported for this substance? ALNSPFMLQFLDWL 0.11

Which amyloid nucleation score is reported for this substance? CIAYRDSTAYHNMTRGTAMV 3.72

Others:
Which amyloid nucleation score is reported for this substance? NVCLGFFPD 0.282

Which amyloid nucleation score is reported for this substance? FTQTSTVPSKETALALNLMR 0.688

Which amyloid nucleation score is reported for this substance? NLVFCFDFQMSAPISGEMQY 4.87

====

amyloid nucleation score values for the sequences below.
# EXPERIMENTAL DETAILS: amyloid nucleation score (Sup35N fusion, yeast selection) (log enrichment); library NNK2; higher = more nucleation; inactive = no reads after selection
Keep the answer to the number alone.

Which amyloid nucleation score is reported for this sequence? SHGVLRMAKIRSWGFDVTVM 0.02

Others:
Which amyloid nucleation score is reported for this sequence? PYSVTEHICGIWLVWCIVGS -0.418

Which amyloid nucleation score is reported for this sequence? NNSYIRLS -0.883

Which amyloid nucleation score is reported for this sequence? IFISRVNDFTVMGGDWSFRG 3.64

Which amyloid nucleation score is reported for this sequence? HYLNIRQDPY 2.4

Which amyloid nucleation score is reported for this sequence? RVRSSLVDLASVGSILLTAR -0.264

Which amyloid nucleation score is reported for this sequence? FVVIWAMDIDVLWSMGGKID 5.46

Which amyloid nucleation score is reported for this sequence? GFSTRYVFTSLYLKYFNRVY -0.476

====

amyloid nucleation score values for the sequences below.
# EXPERIMENTAL DETAILS: amyloid nucleation score (Sup35N fusion, yeast selection) (log enrichment); library NNK1; higher = more nucleation; inactive = no reads after selection
Keep the answer to the number alone.

Here are 7 sequences together with their reported answers.
Which amyloid nucleation score is reported for this sequence? VVGELLGGTNRFGKRVSSMA -0.057

Which amyloid nucleation score is reported for this sequence? VRMSFRLVEPY -0.301

Which amyloid nucleation score is reported for this sequence? TNISSTGFAIYWLCN 7.16

Which amyloid nucleation score is reported for this sequence? ASRSCIVSRRASGPHVCCQV 0.098

Which amyloid nucleation score is reported for this sequence? PPVHSDFKWAFVWVQLVWRG -0.016

Which amyloid nucleation score is reported for this sequence? MHFIRALIEFH 1.88

Which amyloid nucleation score is reported for this sequence? LWKLLAAGVGNMCDD -0.503

Now let's try a different one.
Which amyloid nucleation score is reported for this sequence? KWGHSENVVVYFDGAFSWVS 0.16

====

# EXPERIMENTAL DETAILS: amyloid nucleation score (Sup35N fusion, yeast selection) (log enrichment); library NNK3; higher = more nucleation; inactive = no reads after selection
MEASURE NAME: amyloid nucleation score

Which amyloid nucleation score is reported for this substance? GKYKFSLF inactive

Which amyloid nucleation score is reported for this substance? RTLYSQNFK inactive

Which amyloid nucleation score is reported for this substance? LGGNMTCLSQDYLRTSKELL inactive

Which amyloid nucleation score is reported for this substance? GVLSCLSIMIAISGLPGSEK 0.801

Which amyloid nucleation score is reported for this substance? FISSRLFTALLSRCNFHNRF inactive

Others:
Which amyloid nucleation score is reported for this substance? CDSTPYFLMGSWLG inactive

Which amyloid nucleation score is reported for this substance? ESLAWS inactive

Which amyloid nucleation score is reported for this substance? GFYLVKSSMSWVANWCGKHT inactive

Which amyloid nucleation score is reported for this substance? MLHLYQIIMRPYTLSGWWYY inactive

Which amyloid nucleation score is reported for this substance? LLIIVYLVWCALIRRGTQPR inactive

Which amyloid nucleation score is reported for this substance? GDEWGSFLECFITITSSIND inactive

Which amyloid nucleation score is reported for this substance? WGVHCMSQDVRVWWLSLWGG inactive

====

# EXPERIMENTAL DETAILS: amyloid nucleation score (Sup35N fusion, yeast selection) (log enrichment); library NNK1; higher = more nucleation; inactive = no reads after selection
MEASURE NAME: amyloid nucleation score
Keep the answer to the number alone.

Which amyloid nucleation score is reported for this sequence? IDMTEMKIRWV -0.208

Which amyloid nucleation score is reported for this sequence? LLNDSINNPQCFIVSSSGHL -0.541

====

# EXPERIMENTAL DETAILS: amyloid nucleation score (Sup35N fusion, yeast selection) (log enrichment); library NNK1; higher = more nucleation; inactive = no reads after selection
MEASURE NAME: amyloid nucleation score
Keep the answer to the number alone.

Which amyloid nucleation score is reported for this substance? SLNREYVYKRGGVREWCRYL 0.856

Which amyloid nucleation score is reported for this substance? SPAMYPHNSRFLMYITSFMQ 1.08

Which amyloid nucleation score is reported for this substance? GSNLVQKRRCYSWMSLYLSS 0.333

====

# EXPERIMENTAL DETAILS: amyloid nucleation score (Sup35N fusion, yeast selection) (log enrichment); library NNK2; higher = more nucleation; inactive = no reads after selection
Give yes (1) when the value for amyloid nucleation score is at least 0.4. Give no (0) when it is less.

Here are 5 substances together with their reported answers.
Evaluate SSIGKGFSNSYGHAYCKHTW : amyloid nucleation score at minimum 0.4? no (0)

Evaluate SFSKNALDNRFWGRFSFFFG : amyloid nucleation score at minimum 0.4? yes (1)

Evaluate NMFTETDRILVLFIRCLVDC : amyloid nucleation score at minimum 0.4? no (0)

Evaluate MNKNYFSGLPGGSVCYSVEY : amyloid nucleation score at minimum 0.4? no (0)

Evaluate CSPYVRSCTGYVEWGSIRTM : amyloid nucleation score at minimum 0.4? no (0)

Moving on to the next substance.
Evaluate YRFKIMCLVSPHFV : amyloid nucleation score at minimum 0.4? yes (1)

====

# EXPERIMENTAL DETAILS: amyloid nucleation score (Sup35N fusion, yeast selection) (log enrichment); library NNK3; higher = more nucleation; inactive = no reads after selection
Give Y when the value for amyloid nucleation score is at least 0.9. Give N when it is less.

Here are 5 substances together with their reported answers.
Evaluate VEAHLLL : amyloid nucleation score at minimum 0.9? N

Evaluate MNVFWCACYRCSDRVSMKVW : amyloid nucleation score at minimum 0.9? Y

Evaluate IDCCWSCV : amyloid nucleation score at minimum 0.9? N

Evaluate YTERYS : amyloid nucleation score at minimum 0.9? N

Evaluate VIANVKIMTFFMAFSAVHTM : amyloid nucleation score at minimum 0.9? Y

Others:
Evaluate QFLLGWNPNTSDLVLTFVQQ : amyloid nucleation score at minimum 0.9? Y

Evaluate VMMYFQFMPLKPSRD : amyloid nucleation score at minimum 0.9? Y

Evaluate NSCYFFNLHYVYHETANCFI : amyloid nucleation score at minimum 0.9? Y

Evaluate GCIIGCQLDKYGPAMPSARE : amyloid nucleation score at minimum 0.9? N

Evaluate RQNPGLGFLNFFLMV : amyloid nucleation score at minimum 0.9? N

Evaluate TKKASSYQVDWFSCCWEYGA : amyloid nucleation score at minimum 0.9? N

Evaluate ACGFSFF : amyloid nucleation score at minimum 0.9? N

Evaluate RSMHLTWYW : amyloid nucleation score at minimum 0.9? Y

Evaluate WMMMNFHLSMQD : amyloid nucleation score at minimum 0.9? Y

Evaluate LEFRNHPMSYYTLVGQCVRK : amyloid nucleation score at minimum 0.9? N

====

# EXPERIMENTAL DETAILS: amyloid nucleation score (Sup35N fusion, yeast selection) (log enrichment); library NNK1; higher = more nucleation; inactive = no reads after selection
MEASURE NAME: amyloid nucleation score
Keep the answer to the number alone.

Which amyloid nucleation score is reported for this substance? HAIFCLSKLTFLGPILGSFT 7.11

Others:
Which amyloid nucleation score is reported for this substance? EKGLEFHLWLRPVLRACVGY 1.01

====

# EXPERIMENTAL DETAILS: amyloid nucleation score (Sup35N fusion, yeast selection) (log enrichment); library NNK3; higher = more nucleation; inactive = no reads after selection
MEASURE NAME: amyloid nucleation score

Here are 10 substances together with their reported answers.
Which amyloid nucleation score is reported for this substance? WYPGMCFESVDTMDRHLHND inactive

Which amyloid nucleation score is reported for this substance? CDFYVNGTGPSETRWNSKEH inactive

Which amyloid nucleation score is reported for this substance? LHICTLYREVVVAAQCS inactive

Which amyloid nucleation score is reported for this substance? FRKTGFSFVFLIVDEYFICN inactive

Which amyloid nucleation score is reported for this substance? GESAKDVFGSLCRRLISIQL inactive

Which amyloid nucleation score is reported for this substance? LYFSFIFNLSIQGDAEFVSN 2.49

Which amyloid nucleation score is reported for this substance? DKYFVAASWFRWVLVYMGWS inactive

Which amyloid nucleation score is reported for this substance? FVVRIKYTGSDLRLFRMVSF inactive

Which amyloid nucleation score is reported for this substance? RHGFALRLVHSSL inactive

Which amyloid nucleation score is reported for this substance? SFPKYRSNEDFPMDIRCNSS inactive

Others:
Which amyloid nucleation score is reported for this substance? VLLKALVIFDY inactive
